Entries annotated with measured selectivity ratio at 72 hrs
TEST METHOD NOTES: Selectivity index, ratio of IC50 for African green monkey Vero cells measured after 72 hrs by MTT assay to MIC for antimycobacterial activity against Mycobacterium tuberculosis H37Rv ATCC 27294 assessed as inhibition of bacterial growth measured after 5 days by microplate alamar blue assay
Format: toxicity
TEST CONDITIONS: read-out: Selectivity Index
ENDPOINT: selectivity ratio at 72 hrs

| SMILES STRING | ENDPOINT | REPORTED RESULT |
| --- | --- | --- |
| CCOC(=O)c1c(C(F)(F)F)[n+]([O-])c2cc(-n3cncn3)c(F)cc2[n+]1[O-] | selectivity ratio at 72 hrs | 54.8 |
| CCOC(=O)c1c(C(F)(F)F)[n+]([O-])c2cc(-n3ccnc3)c(F)cc2[n+]1[O-] | selectivity ratio at 72 hrs | 30 |
| CC(=O)c1c(C)[n+]([O-])c2cc(-n3ccnc3)c(F)cc2[n+]1[O-] | selectivity ratio at 72 hrs | 46.4 |

====

TEST METHOD NOTES: Half life in Wistar rat at 2.5 mg/kg, im measured for 48 hrs by HPLC method
Assay type: ADME, organism-based
TEST CONDITIONS: in vivo

| SMILES STRING | UNIT ABBREV | half-life |
| --- | --- | --- |
| Cc1c(C(=O)OCc2ccccc2)[n+]([O-])c2cc(F)c(-n3cncn3)cc2[n+]1[O-] | min | 356 |

====

TEST METHOD NOTES: Selectivity index, ratio of IC50 for African green monkey Vero cells measured after 72 hrs by MTT assay to MIC for antimycobacterial activity against Mycobacterium tuberculosis H37Rv ATCC 27294 assessed as inhibition of bacterial growth measured after 5 days by microplate alamar blue assay
Assay type: toxicity
TEST CONDITIONS: read-out: Selectivity Index
ENDPOINT: selectivity ratio at 72 hrs

| SMILES STRING | REPORTED RESULT |
| --- | --- |
| Cc1c(C(=O)OCc2ccccc2)[n+]([O-])c2cc(F)c(F)cc2[n+]1[O-] | 38.3 |
| CCOC(=O)c1c(C)[n+]([O-])c2cc(-n3cncn3)c(F)cc2[n+]1[O-] | 412 |
| CCOC(=O)c1c(C)[n+]([O-])c2cc(-n3ccnc3)c(F)cc2[n+]1[O-] | 172 |
| CC(=O)c1c(C)[n+]([O-])c2cc(F)c(F)cc2[n+]1[O-] | 2.8 |
| Cc1c(C(=O)OCc2ccccc2)[n+]([O-])c2cc(F)c(-n3cncn3)cc2[n+]1[O-] | 328 |

====

Tested on: Mycobacterium tuberculosis
TEST METHOD NOTES: Antimycobacterial activity against Mycobacterium tuberculosis H37Rv ATCC 27294 assessed as inhibition of bacterial growth measured after 5 days by microplate alamar blue assay
Type: functional
TEST CONDITIONS: H37Rv ATCC 27294, 120 h, time 5 day
ENDPOINT: log10(MIC) (log10 of the value in µg/mL)

| COMPOUND | log10(MIC) |
| --- | --- |
| Cc1c(C(=O)CC(C)C)[n+]([O-])c2ccccc2[n+]1[O-] | 1.81 |
| Cc1c(C(=O)OC(C)C)[n+]([O-])c2cc(-n3ccnc3)c(-n3ccnc3)cc2[n+]1[O-] | 0.90 |
| CCOC(=O)c1c(C)[n+]([O-])c2cc(N3CCCCC3)c(F)cc2[n+]1[O-] | 1.51 |
| CCOC(=O)c1c(C)[n+]([O-])c2cc(N3CCN(C)CC3)c(F)cc2[n+]1[O-] | 0.90 |
| CCOC(=O)c1c(C)[n+]([O-])c2cc(N3CCNC(C)C3)c(F)cc2[n+]1[O-] (stereo unspecified) | 0.90 |
| CC(=O)c1c(C)[n+]([O-])c2cc(N3CCNCC3)ccc2[n+]1[O-] | 1.81 |
| CCOC(=O)c1c(C)[n+]([O-])c2cc(F)c(F)cc2[n+]1[O-] | 0.00 |
| CC(=O)c1c(C)[n+]([O-])c2cc(N3CCNC(C)C3)c(F)cc2[n+]1[O-] (stereo unspecified) | 1.20 |
| CCOC(=O)c1c(C)[n+]([O-])c2cc(N3CCCC3)c(F)cc2[n+]1[O-] | 1.81 |
| CO[C@H]1/C=C/O[C@@]2(C)Oc3c(C)c(O)c4c(O)c(c(/C=N/N5CCN(C)CC5)c(O)c4c3C2=O)NC(=O)/C(C)=C\C=C\[C@H](C)[C@H](O)[C@@H](C)[C@@H](O)[C@@H](C)[C@H](OC(C)=O)[C@@H]1C | -1.20 |
| CC(=O)c1c(C)[n+]([O-])c2cc(F)c(F)cc2[n+]1[O-] | 0.30 |
| CCOC(=O)c1c(C)[n+]([O-])c2cc(-n3cncn3)c(F)cc2[n+]1[O-] | -0.90 |
| CC(=O)c1c(C)[n+]([O-])c2cc(N3CCNCC3)c(F)cc2[n+]1[O-] | 0.60 |
| CCOC(=O)c1c(C(F)(F)F)[n+]([O-])c2cc(N3CCNCC3)c(F)cc2[n+]1[O-] | -0.30 |
| Cc1c(C(=O)CC(C)C)[n+]([O-])c2cc(F)c(N3CCNCC3)cc2[n+]1[O-] | 1.51 |
| CC(=O)c1c(C)[n+]([O-])c2cc(-n3ccnc3)c(F)cc2[n+]1[O-] | -0.30 |
| Cc1c(C(=O)OCc2ccccc2)[n+]([O-])c2cc(F)c(F)cc2[n+]1[O-] | -0.30 |
| CCOC(=O)c1c(C(F)(F)F)[n+]([O-])c2cc(-n3ccnc3)c(F)cc2[n+]1[O-] | -0.60 |
| Cc1c(C(=O)OC(C)C)[n+]([O-])c2cc(F)c(F)cc2[n+]1[O-] | 1.20 |
| CCOC(=O)c1c(C)[n+]([O-])c2cc(N3CCOCC3)c(F)cc2[n+]1[O-] | 1.81 |
| Cc1c(C(=O)OCc2ccccc2)[n+]([O-])c2cc(F)c(-n3cncn3)cc2[n+]1[O-] | -0.90 |
| CCOC(=O)c1c(C)[n+]([O-])c2cc(N3CCNCC3)c(F)cc2[n+]1[O-] | 0.60 |
| Cc1c(C(=O)OC(C)C)[n+]([O-])c2cc(F)c(-n3ccnc3)cc2[n+]1[O-] | 0.30 |
| CCCC(=O)c1c(C)[n+]([O-])c2ccccc2[n+]1[O-] | 1.81 |
| CCOC(=O)c1c(C)[n+]([O-])c2cc(-n3ccnc3)c(F)cc2[n+]1[O-] | -0.60 |
| CCOC(=O)c1c(C(F)(F)F)[n+]([O-])c2cc(-n3cncn3)c(F)cc2[n+]1[O-] | -0.60 |
| CCCC(=O)c1c(C)[n+]([O-])c2cc(N3CCNCC3)c(F)cc2[n+]1[O-] | 1.20 |
| CCCC(=O)c1c(C)[n+]([O-])c2cc(F)c(F)cc2[n+]1[O-] | 0.90 |
| CC(=O)c1c(C(F)(F)F)[n+]([O-])c2cc(-n3ccnc3)c(F)cc2[n+]1[O-] | -0.60 |
| Cc1c(C(=O)OCc2ccccc2)[n+]([O-])c2cc(F)c(-n3ccnc3)cc2[n+]1[O-] | -0.60 |
| CC(=O)c1c(C)[n+]([O-])c2ccccc2[n+]1[O-] | 0.90 |

====

TEST METHOD NOTES: AUC (0 to infinity) in Wistar rat at 2.5 mg/kg, im by HPLC method
Assay type: ADME, organism-based
Parameters: time infinity, route intramuscular, dose 2.5 mg/kg
TEST CONDITIONS: in vivo
ENDPOINT: AUC(0-inf) (µg·h/mL)

| SMILES STRING | UNIT ABBREV | REPORTED RESULT |
| --- | --- | --- |
| Cc1c(C(=O)OCc2ccccc2)[n+]([O-])c2cc(F)c(-n3cncn3)cc2[n+]1[O-] | µg·h/mL | 10.6 |

====

TEST METHOD NOTES: Selectivity index, ratio of IC50 for African green monkey Vero cells measured after 72 hrs by MTT assay to MIC for antimycobacterial activity against Mycobacterium tuberculosis H37Rv ATCC 27294 assessed as inhibition of bacterial growth measured after 5 days by microplate alamar blue assay
Assay type: toxicity
TEST CONDITIONS: read-out: Selectivity Index
Think of 30 as a floor: if selectivity ratio at 72 hrs stands on it or above, it is rule met; beneath it, rule not met.

| SMILES STRING | LABEL |
| --- | --- |
| CCOC(=O)c1c(C)[n+]([O-])c2cc(F)c(F)cc2[n+]1[O-] | rule not met |
| Cc1c(C(=O)OC(C)C)[n+]([O-])c2cc(F)c(-n3ccnc3)cc2[n+]1[O-] | rule not met |
| CC(=O)c1c(C(F)(F)F)[n+]([O-])c2cc(-n3ccnc3)c(F)cc2[n+]1[O-] | rule met |
| Cc1c(C(=O)OCc2ccccc2)[n+]([O-])c2cc(F)c(-n3ccnc3)cc2[n+]1[O-] | rule met |
| CCOC(=O)c1c(C(F)(F)F)[n+]([O-])c2cc(N3CCNCC3)c(F)cc2[n+]1[O-] | rule not met |
